TARGET: Tyrosine-protein kinase ITK/TSK (Homo sapiens, UniProt Q08881)
Sequence (Q08881 whole entry): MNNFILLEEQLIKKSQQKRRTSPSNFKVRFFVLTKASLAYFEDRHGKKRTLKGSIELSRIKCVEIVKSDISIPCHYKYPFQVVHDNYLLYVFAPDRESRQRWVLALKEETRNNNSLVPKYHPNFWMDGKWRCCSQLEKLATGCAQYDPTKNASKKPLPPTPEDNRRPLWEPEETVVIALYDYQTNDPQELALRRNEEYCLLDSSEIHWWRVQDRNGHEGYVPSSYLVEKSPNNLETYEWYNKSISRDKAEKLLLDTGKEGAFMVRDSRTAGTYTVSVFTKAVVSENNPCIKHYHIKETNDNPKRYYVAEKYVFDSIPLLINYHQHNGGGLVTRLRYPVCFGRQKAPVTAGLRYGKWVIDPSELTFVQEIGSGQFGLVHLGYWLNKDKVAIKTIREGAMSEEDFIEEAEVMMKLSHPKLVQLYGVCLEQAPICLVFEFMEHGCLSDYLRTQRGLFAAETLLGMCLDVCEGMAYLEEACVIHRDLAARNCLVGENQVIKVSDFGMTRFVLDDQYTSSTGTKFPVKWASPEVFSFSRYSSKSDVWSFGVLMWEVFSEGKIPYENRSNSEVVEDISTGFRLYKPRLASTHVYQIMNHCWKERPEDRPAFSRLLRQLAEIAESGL
EXPERIMENTAL_DETAILS: Inhibition of human ITK in presence of 100 uM ATP
pIC50: −log10 of the molar value.
MEASUREMENT_KIND: pIC50

[[record]]
query_smiles = "CN(C(=O)C1CCCCC1)c1ccc2c(c1)nc(NC(=O)c1cccs1)n2CCCN"
endpoint_result = 6.62


====

TARGET: Tyrosine-protein kinase ITK/TSK (Homo sapiens, UniProt Q08881)
EXPERIMENTAL_DETAILS: Inhibition of human ITK in presence of 20 uM ATP
MEASUREMENT_KIND: IC50 (nM)

[[record]]
query_smiles = "CN(C(=O)C1CCCCC1)c1ccc2c(c1)nc(NC(=O)c1cccs1)n2CCCN"
measurement_kind = "IC50"
result_units = "nM"
endpoint_result = 80

